target: ubiquitin acetylated at K48 (UniProt P0CG48 1-76, acetyllysine (AcK) at position 48); test: NMR
PARAMETER MEASURED: Kd (nM)
Kindly provide the numeric value in nM only, without the unit symbol.

Exercise: Form field: reported Kd of RFQQQLEQLNAMGFLNREANLQALIATGGDINAAIERLLGS (domain or fragment) [UBA domain of human Ubiquilin-2]
Solution: 1300
